Provide the recorded IC50 for the entries that follow.
biological target: His-GST-TVMV-hRIPK1(1-324) (Homo sapiens (Human), UniProt Q13546); experiment: RIPK1 HTRF Binding Assay; settings: HTRF binding, 1 h at rt; read-out: RIPK1 (IC50)
Sequence (Q13546 1-324): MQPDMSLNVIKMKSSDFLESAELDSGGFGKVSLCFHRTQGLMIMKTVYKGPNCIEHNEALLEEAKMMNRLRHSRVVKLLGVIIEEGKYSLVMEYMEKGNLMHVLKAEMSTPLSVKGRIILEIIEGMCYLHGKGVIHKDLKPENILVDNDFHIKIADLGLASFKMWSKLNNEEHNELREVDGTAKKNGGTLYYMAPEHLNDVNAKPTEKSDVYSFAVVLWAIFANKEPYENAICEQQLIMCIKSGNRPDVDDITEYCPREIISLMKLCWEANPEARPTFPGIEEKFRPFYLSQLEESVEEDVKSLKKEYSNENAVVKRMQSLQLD
Give bare numbers, in nM.

COc1nc(C)c(-c2ccc3nc(NC(C)=O)cn3n2)cc1C(=O)NCc1cccnc1OCC1CCC1 : 5
[2H]C([2H])([2H])Oc1nc(C)c(-c2ccc3nc(NC(C)=O)cn3n2)cc1C(=O)NCc1cc(OCC2CC2)ccc1F : 4
COc1nc(C)c(-c2ccc3nc(NC(C)=O)cn3n2)cc1C(=O)NCc1cc(F)c(F)cc1OCC1CC1 : 5
[2H]C([2H])([2H])Oc1ncc(-c2ccc3nc(NC(C)=O)cn3n2)cc1C(=O)NC(C)c1cc(C(F)(F)F)ccc1F (stereo not shown) [Example 52] : 65

Each compound below has a reported value. Please supply its IC50.
1. CC(=O)Nc1cn2nc(-c3cc(C(=O)NCc4cccc(F)c4OCC4CC4)cnc3C)ccc2n1
2. [2H]C([2H])(Oc1c(F)cc(F)cc1CNC(=O)c1cc(-c2ccc3nc(NC(C)=O)c(C)n3n2)cnc1OC)C1CC1
3. COc1nc(C)c(-c2ccc3nc(NC(C)=O)cn3n2)cc1C(=O)NC(C)c1cc(C(F)(F)F)ccc1F (stereo not shown) [Example 277]

[A]
1. 4
2. 3
3. 107
